target: T1, N-terminal biotinylated β-amyloid (24-34) peptide; assay: FMAT bead immunoassay, culture supernatant
T1 peptide: Biotin-VGSNKGAIIGL
Ends that are not written are not given here. * marks the point of attachment. Biotin = O=C1N[C@H]2[C@H](CS[C@H]2CCCCC(=O)*)N1
measured.quantity: binding result

INSERT INTO measurements (binder, reported) VALUES
  ('2E11 mouse monoclonal antibody (antibody, V domains shown, Mouse hybridoma antibody) VH: EVQLQQSGAEVVKPGASVKLSCTASGFNIKVYYIHWLKQLTEQGLEWIGRIDPENGETKYVPKFQGKATLTVDTSSNTAYLHLSSLTSEDTGVYYCVTSGYWGQGTTLTVSS VL: DIVMTQAAFSNPVALGTSASISCRSSKSLLHSNGITYLYWYLQKPGQSPQLLIYQMSNLASGVPDRFSSSGSGTDFTLRISRVEAEDVGVYYCAQNLELWTFGGGTKLEIK', 'binds'),
  ('14B3 mouse monoclonal antibody (antibody, V domains shown, Mouse hybridoma antibody) VH: EVQLQQSGAELVEPGASVKLSCTGSGFNIKVYYVHWLKQLTEQGLEWIGRIDPENGETLYTPKFQGKATFTVDTSSNTAYLQLSSLTSEDTAVYYCVSSGYWGQGTTLTVSS VL: DIVMTQSAFSNPVTLGTSASISCRSSKSLLHRNGITYLYWYLQKPGQSPQLLIYQMSNLASGVPDRFTSSGSGTDFTLKISRVEAEDVGVYYCAQNLELWTFGGGTKLEIK', 'binds'),
  ('5D1 mouse monoclonal antibody (antibody, V domains shown, Mouse hybridoma antibody) VH: EVQLQQSGAELVKPGASVKLSCTGSGFNIKVYYVHWLKQLTEQGLEWIGRIDPENGETKYAPKFQDKATLTVDTSSNTAYLHLSSLTSEDTAVYYCVSSGYWGQGTTLTVSS VL: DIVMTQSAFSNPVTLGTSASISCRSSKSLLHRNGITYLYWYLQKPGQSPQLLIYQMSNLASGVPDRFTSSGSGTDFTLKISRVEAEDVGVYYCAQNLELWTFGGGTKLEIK', 'binds');
